Origin of measurements: patent US20210388087A1

Measured ratio of amounts bound (Z=Y/X) of individual entries
- systemTested: T1, CD3 epsilon homodimer protein (UniProt P07766 23-126)
- T1 construct: also called CD3 (CD3 epsilon)
- T1 sequence (P07766 23-126): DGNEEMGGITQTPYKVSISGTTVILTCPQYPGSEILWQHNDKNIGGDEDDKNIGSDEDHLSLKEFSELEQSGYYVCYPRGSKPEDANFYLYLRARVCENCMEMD
- procedureSummary: SPR Biacore T200, CD3e homodimer on chip, vs unaltered GLS3000 antibody
# output: bare number, no unit

[[record]]
binder = "GLS3000 S56D (antibody, name in Kabat numbering, V domains shown, one-arm IgG as m2) VH: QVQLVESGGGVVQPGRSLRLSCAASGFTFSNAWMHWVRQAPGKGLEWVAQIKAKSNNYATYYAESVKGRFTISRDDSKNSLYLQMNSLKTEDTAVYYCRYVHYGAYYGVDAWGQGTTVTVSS VL: DIVMTQSPLSLPVTPGEPASISCRSSQSLVHSNRNTYLHWYQQKPGQAPRLLIYKVSNRFDGVPDRFSGSGSGTDFTLKISRVEAEDVGVYYCGQGTQVPYTFGQGTKLEIK"
readoutvalue = 0.77


Now look at this entry.
Incoming: I have this binder here, GLS3000 L27bD (antibody, name in Kabat numbering, V domains shown, one-arm IgG as m2) VH: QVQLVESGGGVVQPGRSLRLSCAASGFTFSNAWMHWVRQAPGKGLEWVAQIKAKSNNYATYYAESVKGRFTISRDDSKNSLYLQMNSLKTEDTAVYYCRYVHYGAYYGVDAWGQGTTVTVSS VL: DIVMTQSPLSLPVTPGEPASISCRSSQSDVHSNRNTYLHWYQQKPGQAPRLLIYKVSNRFSGVPDRFSGSGSGTDFTLKISRVEAEDVGVYYCGQGTQVPYTFGQGTKLEIK , and I need its recorded ratio of amounts bound (Z=Y/X).
Outgoing: 0.17
